Listed below: GI50 values for each entry.
# Tested on: UO-31 renal
# assay.protocol: NCI tumour cell line growth inhibition, 48 h

test.smiles: C[C@@H](C[C@H](CCO)c1ccccc1)c1ccc2ccccc2c1
GI50: 1.54 µM

test.smiles: CCSc1nc(N)c2cnn(CC)c2n1
GI50: 7.24 µM

test.smiles: CC[C@@H](C(=O)[C@@H](C)[C@@H](O)[C@H](C)[C@@H]1O[C@@H]([C@@H](CC)C(=O)O)CC[C@@H]1C)[C@H]1O[C@]2(C=C[C@@H](O)[C@]3(CC[C@@](C)([C@H]4CC[C@](O)(CC)[C@H](C)O4)O3)O2)[C@H](C)C[C@@H]1C
GI50: 1.05 µM

test.smiles: C[C@@H]1Cc2c(ccc3[nH]ncc23)[C@@H](c2ccc(NC3CN(CCCF)C3)cn2)N1CC(F)(F)F
GI50: 12.6 µM

---

TGI listing for selected compounds.
# Tested on: HCC-2998 colon
# assay.protocol: NCI tumour cell line growth inhibition, 48 h
recorded.metric: TGI

compound: CSc1c(C)n([O-])c2cc(Cl)c(Cl)cc2[n+]1=O
result: 38 µM

compound: Cc1nccn1S(=O)(=O)c1ccc(Cl)cc1
result: 88 µM

compound: Cn1cc(-c2csc(-c3cn(C(=O)OC(C)(C)C)c4ccccc34)n2)c2cccnc21
result: 25.3 µM

compound: COC(=O)C(CNC(=O)/C=C/c1ccc(OC(C)=O)c(OC(C)=O)c1)NC(=O)/C=C/c1ccc(OC(C)=O)c(OC(C)=O)c1 (stereo not given)
result: > 100 µM

compound: C=C(CN1CCN(c2ccc(F)c(Cl)c2)CC1)c1ccc(C(=O)Nc2ccccc2N)cc1
result: 24.9 µM

compound: CCCCCCCCCCOc1ccc(N=Nc2nnc(-c3ccc(OCCCCC)cc3)s2)cc1
result: > 100 µM

compound: O=C(CN1CCN(c2ccccn2)CC1)N1CCCn2c1nc1ccccc1c2=O
result: > 100 µM

compound: O=c1[nH]c2ccc(C(F)(F)F)cc2nc1C(F)(F)F
result: > 100 µM

compound: CN1CCN(c2nc3cc(F)ccc3n3cccc23)CC1
result: > 100 µM

compound: Cc1ccc(C)c2c1n1c(=O)n(C)c(=O)n21
result: > 100 µM

---

Documented TGI across a set of compounds
# Test system: NCI/ADR-RES ovarian
# assay.protocol: NCI tumour cell line growth inhibition, 48 h
recorded.metric: TGI

compound: N#Cc1cc2c(cc1Cl)SC(=Nc1ccccc1)N(S(=O)(=O)c1ccc(Br)s1)S2(=O)=O
result: 43.8 µM
//
compound: Cc1c(C2CCSc3ccccc3N2)sc2ccccc12 (stereo unspecified)
result: > 100 µM
//
compound: CCN(CC)C(=O)c1cc([N+](=O)[O-])c(=O)n2c1[nH]c1ccccc12
result: > 100 µM
//
compound: CC1/C(=N/O)CC(c2ccccc2)N(N=O)C1c1ccccc1 (stereo unspecified)
result: > 100 µM
//
compound: COc1cc(-c2nc(SC)nc3c2CCc2ccccc2-3)cc(OC)c1OC
result: > 100 µM
//
compound: O=C(Cn1c(=O)oc2ccc(C(=O)c3cccc(Cl)c3)cc21)c1ccccc1
result: > 100 µM
//
compound: O=C1/C(=C/c2ccc(O)cc2)Oc2ccccc21
result: > 100 µM
//
compound: COC(=O)Nc1nc2ccc(C(=O)c3cccs3)cc2[nH]1
result: > 100 µM
//
compound: COc1cc2c(=O)n(CC3CCCCC3)c3c4cc[nH]c4ncc3c2cc1OC
result: 34.5 µM
//
compound: O=C(NNc1nc(-c2ccccc2)cs1)Nc1ccccc1
result: 45.8 µM
//
compound: OCC(S)CS.[Bi] (stereo unspecified)
result: > 100 µM
